Target: KRAS WT (Homo sapiens (Human), UniProt P01116+P62937)
Sequence (P01116-2 other isoform, or with tags, fused parts or gaps): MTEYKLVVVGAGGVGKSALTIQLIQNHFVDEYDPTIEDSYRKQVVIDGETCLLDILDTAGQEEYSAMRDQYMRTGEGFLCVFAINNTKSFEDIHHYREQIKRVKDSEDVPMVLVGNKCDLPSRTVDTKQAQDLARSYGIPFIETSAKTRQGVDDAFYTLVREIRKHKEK
Sequence (P62937 whole entry): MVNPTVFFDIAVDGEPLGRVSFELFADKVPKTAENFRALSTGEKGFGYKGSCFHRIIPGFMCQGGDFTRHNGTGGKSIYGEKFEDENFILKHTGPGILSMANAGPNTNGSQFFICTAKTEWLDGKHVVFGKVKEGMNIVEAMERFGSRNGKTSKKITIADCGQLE
Experiment: Ras-Raf (BRAF RBD) disruption / FRET / MOA assay, KRAS WT
Format: biochemical
Details: read-out: IC50* KRAS WT FRET data
pIC50: −log10 of the molar value.
quantity_kind: pIC50

{"columns": ["compound", "value"],
 "data": [
  ["C=CC(=O)N1CCOC2(CCN(C(=O)N(C)[C@H](C(=O)N[C@H]3Cc4nsc(n4)-c4ccc5c(c4)c(c(-c4cccnc4[C@H](C)OC)n5CC)CC(C)(C)COC(=O)[C@@H]4CCCN(N4)C3=O)C(C)C)CC2)C1 (atropisomer, axis not shown)", "6.00 to 7.00"],
  ["C=CC(=O)N1CC[C@H](C(=O)N(C)[C@@H](CC(F)(F)F)C(=O)N[C@H]2Cc3cccc(c3)-c3ccc4c(c3)c(c(-c3cccnc3[C@H](C)OC)n4CC)CC(C)(C)COC(=O)[C@@H]3CCCN(N3)C2=O)C1 (atropisomer, axis not shown)", "5.00 to 6.00"],
  ["CCn1c(-c2cccnc2[C@H](C)OC)c2c3cc(ccc31)-c1nc(co1)C[C@H](NC(=O)[C@@H](COC1CN(C(=O)C#CC(C)(C)N(C)C)C1)C(C)C)C(=O)N1CCC[C@H](N1)C(=O)OCC(C)(C)C2 (atropisomer, axis not shown)", "< 5.00"],
  ["CO[C@@H](C)c1ncccc1-c1c2c3cc(ccc3n1CC(F)(F)F)-c1nc(co1)C[C@H](NC(=O)[C@@H](COC1CN(C(=O)C#CC(C)(C)N(C)C)C1)C(C)C)C(=O)N1CCC[C@H](N1)C(=O)OCC(C)(C)C2 (atropisomer, axis not shown)", "< 5.00"],
  ["C=CC(=O)N1CC[C@H](C(=O)N(C)[C@H](C(=O)N[C@H]2CC3=NN=C(O3)c3ccc4c(c3)c(c(-c3cccnc3[C@H](C)OC)n4CC)CC(C)(C)COC(=O)[C@@H]3CCCN(N3)C2=O)C(C)C)C1 (atropisomer, axis not shown)", "5.00 to 6.00"],
  ["CC#CC(=O)N1CC[C@H](C(=O)N(C)[C@H](C(=O)N[C@H]2Cc3cccc(c3)-c3ccc4c(c3)c(c(-c3cccnc3[C@H](C)OC)n4CC)CC(C)(C)COC(=O)[C@@H]3CCCN(N3)C2=O)C2CCCC2)C1 (atropisomer, axis not shown)", "5.00 to 6.00"],
  ["CCn1c(-c2cccnc2[C@H](C)OC)c2c3cc(ccc31)-c1csc(n1)C[C@H](NC(=O)[C@H](C)N(C)C(=O)[C@H]1CCN(C(=O)C#CC(C)(C)N3CCC3)C1)C(=O)N1CCC[C@H](N1)C(=O)OCC(C)(C)C2 (atropisomer, axis not shown)", "5.00 to 6.00"]
]}

* * *

Target: NRAS G12C (Homo sapiens (Human), UniProt P01111+P62937, G12C)
Sequence (P01111 whole entry G12C): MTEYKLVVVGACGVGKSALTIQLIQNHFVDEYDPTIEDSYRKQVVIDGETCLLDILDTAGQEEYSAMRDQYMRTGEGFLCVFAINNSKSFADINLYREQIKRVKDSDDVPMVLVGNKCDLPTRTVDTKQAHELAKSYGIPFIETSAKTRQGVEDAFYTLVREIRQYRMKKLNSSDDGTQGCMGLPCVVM
Sequence (P62937 whole entry): as the sequence (P62937 whole entry) above
Assay: Ras-Raf (BRAF RBD) disruption / FRET / MOA assay, NRAS G12C
Type: biochemical
Conditions: read-out: IC50* NRAS G12C FRET data
pIC50: −log10 of the molar value.
The reader will find reported pIC50 values listed item by item below.

{"columns": ["compound", "pIC50"],
 "data": [
  ["C=CC(=O)N1CC[C@H](C(=O)N(C)[C@H](C(=O)N[C@H]2Cc3cc(O)cc(c3)-c3ccc4c(c3)c(c(-c3cncnc3)n4CC)CC(C)(C)COC(=O)[C@@H]3CCCN(N3)C2=O)C(C)C)O1", "6.00 to 7.00"],
  ["CCn1c(-c2cccnc2[C@H](C)OC)c2c3cc(ccc31)N1CCO[C@@H](C[C@H](NC(=O)[C@H](C(C)C)N(C)C(=O)[C@@]3(F)CCC(C(=O)C#CC(C)(C)N4CCC4)C3)C(=O)N3CCC[C@H](N3)C(=O)OCC(C)(C)C2)C1 (some centres unmarked)", "7.00 to 8.00"]
]}

* * *

Biological target: KRAS G12S (Homo sapiens (Human), UniProt P01116+P62937, G12S)
Sequence (P01116-2 other isoform, or with tags, fused parts or gaps G12S): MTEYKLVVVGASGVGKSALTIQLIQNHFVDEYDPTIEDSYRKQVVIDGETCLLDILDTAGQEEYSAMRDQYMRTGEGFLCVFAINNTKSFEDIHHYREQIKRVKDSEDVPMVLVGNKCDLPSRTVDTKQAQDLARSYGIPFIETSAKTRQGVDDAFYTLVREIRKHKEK
Sequence (P62937 whole entry): as the sequence (P62937 whole entry) above
Experiment: Ras-Raf (BRAF RBD) disruption / FRET / MOA assay, KRAS G12S
Format: biochemical
Conditions: Ras-Raf disruption/FRET/MOA assay; class symbols; read-out: KRAS G12S FRET data IC50
Measured IC50 by item

{"columns": ["compound", "IC50"],
 "data": [
  ["C=CC(=O)N1CC[C@H](C(=O)N(C)[C@H](C(=O)N[C@H]2Cc3csc(n3)-c3ccc4c(c3)c(c(-c3cccnc3[C@H](C)OC)n4CC(F)(F)F)CC(C)(C)COC(=O)[C@@H]3CCCN(N3)C2=O)C(C)C)C1 (atropisomer, axis not shown)", "100 to 1000 nM"],
  ["C=CC(=O)N1CC[C@H](C(=O)N(C)[C@H](C(=O)N[C@H]2Cc3cccc(c3)-c3ccc4c(c3)c(c(-c3cccnc3[C@H](C)OC)n4CC)CC(C)(C)COC(=O)[C@@H]3CCCN(N3)C2=O)C(C)(C)F)C1 (atropisomer, axis not shown)", "1000 to 10000 nM"],
  ["C=CC(=O)N1CCC[C@@H]2CN(C(=O)N(C)[C@H](C(=O)N[C@H]3Cc4nc(cs4)-c4ccc5c(c4)c(c(-c4cccnc4[C@H](C)OC)n5CC)CC(C)(C)COC(=O)[C@@H]4CCCN(N4)C3=O)C(C)C)C[C@@H]21 (atropisomer, axis not shown)", "1000 to 10000 nM"],
  ["C=CC(=O)N1CC[C@H](C(=O)N(C)[C@H](C(=O)N[C@H]2Cc3cccc(c3)-c3ccc4c(c3)c(c(-c3cccnc3[C@H](C)OC)n4CC)CC(C)(C)COC(=O)[C@@H]3CCCN(N3)C2=O)C(C)C(F)(F)F)C1 (stereo partly shown)", "1000 to 10000 nM"],
  ["CCn1c(-c2cccnc2[C@H](C)OC)c2c3cc(ccc31)-c1cc(O)cc(c1)C[C@H](NC(=O)[C@H](C(C)C)N(C)C(=O)[C@H]1CCN(C(=O)C#CC(C)(C)N(C)C)C1)C(=O)N1CCC[C@H](N1)C(=O)OCC(C)(C)C2 (atropisomer, axis not shown)", "10 to 100 nM"],
  ["CCn1c(-c2cccnc2[C@H](C)OC)c2c3cc(ccc31)-c1cc(O)cc(c1)C[C@H](NC(=O)[C@H](C(C)C)N(C)C(=O)[C@H]1CCN(C(=O)C#CCN3[C@@H](C)COC[C@@H]3C)C1)C(=O)N1CCC[C@H](N1)C(=O)OCC(C)(C)C2 (atropisomer, axis not shown)", "100 to 1000 nM"],
  ["C=CC(=O)N1CC[C@H](C(=O)N(C)[C@H](C(=O)N[C@H]2Cc3cccc(c3)-c3ccc4c(c3)c(c(-c3cccnc3[C@H](C)OC)n4CC)CC(C)(C)COC(=O)[C@@H]3CCCN(N3)C2=O)C(C)C)[C@@H]1C (atropisomer, axis not shown)", "> 10000 nM"]
]}

* * *

Reported IC50 values are given for each entry in this list.
Biological target: KRAS WT (Homo sapiens (Human), UniProt P01116+P62937)
Experiment: Ras-Raf (BRAF RBD) disruption / FRET / MOA assay, KRAS WT
Format: biochemical
Details: read-out: IC50* KRAS WT FRET data
quantity_kind: IC50

{"columns": ["molecule", "quantity_kind", "value"],
 "data": [
  ["C=CS(=O)(=O)N1CCC(C(=O)N(C)[C@H](C(=O)N[C@H]2Cc3cccc(c3)-c3ccc4c(c3)c(c(-c3cncnc3)n4CC)CC(C)(C)COC(=O)[C@@H]3CCCN(N3)C2=O)C(C)C)C1 (single isomer, unassigned)", "IC50", "> 10 µM"],
  ["CCn1c(-c2cccnc2)c2c3cc(ccc31)-c1cccc(c1)C[C@H](NC(=O)[C@H](C(C)C)N(C)C(=O)[C@H]1CCN(C(=O)C#CCN3CCOCC3)C1)C(=O)N1CCC[C@H](N1)C(=O)OCC(C)(C)C2", "IC50", "> 10 µM"],
  ["C=CC(=O)N1CC[C@H](C(=O)N(C)[C@H](C(=O)N[C@H]2Cc3cccc(c3)-c3ccc4c(c3)c(c(-c3cc5c(nc3[C@H](C)OC)CN(C)CC5)n4CC)CC(C)(C)COC(=O)[C@@H]3CCCN(N3)C2=O)C(C)C)C1 (atropisomer, axis not shown)", "IC50", "1 to 10 µM"],
  ["C=CC(=O)N1CC[C@H](C(=O)N(C)[C@H](C(=O)N[C@H]2Cc3cc(cc(C(F)F)c3)-c3ccc4c(c3)c(c(-c3cccnc3[C@H](C)OC)n4CC(F)(F)F)CC(C)(C)COC(=O)[C@@H]3CCCN(N3)C2=O)C(C)C)C1 (atropisomer, axis not shown)", "IC50", "1 to 10 µM"]
]}

* * *

System: NCI-H358 (K-Ras G12C)
Assay: CellTiter-Glo cell viability assay, NCI-H358
Assay type: cell-based, human
Details: NCI-H358, 5-day treatment; class symbols; read-out: Additional H358 Cell Viability assay data (K-Ras G12C, IC50)
pIC50: −log10 of the molar value.

{"columns": ["molecule", "pIC50"],
 "data": [
  ["C=CC(=O)N1CC[C@H](C(=O)N(C)[C@H](C(=O)N[C@H]2Cc3cccc(c3)-c3ccc4c(c3)c(c(-c3cc(C5CCN(C)CC5)cnc3[C@H](C)OC)n4CC)CC(C)(C)COC(=O)[C@@H]3CCCN(N3)C2=O)C(C)C)C1 (atropisomer, axis not shown) [Example A516]", "< 6.00"],
  ["CCn1c(-c2cccnc2[C@H](C)OC)c2c3cc(ccc31)-c1cccc(c1)C[C@H](NC(=O)[C@H](C(C)C)N(C)C(=O)[C@H]1CCN(C(=O)C#CC(C)(C)N(C)C)C1)C(=O)N1CCC[C@H](N1)C(=O)OCC(C)(C)C2 (atropisomer, axis not shown) [Example A339]", "> 8.00"],
  ["C=CC(=O)N1CC[C@H](C(=O)N(C)[C@H](C(=O)NC2C[C@H]3CN(CCCO3)c3ccc4c(c3)c(c(-c3cccnc3[C@H](C)OC)n4CC)CC(C)(C)COC(=O)[C@@H]3CCCN(N3)C2=O)C(C)C)C1 (stereo partly shown) [Example A429]", "< 6.00"],
  ["C=CC(=O)N1CC[C@H](C(=O)N(C)[C@H](C(=O)N[C@H]2Cc3cccc(c3)-c3ccc4c(c3)c(c(-c3cc(C5=CCN(C)CC5)cnc3[C@H](C)OC)n4CC)CC(C)(C)COC(=O)[C@@H]3CCCN(N3)C2=O)C(C)C)C1 (atropisomer, axis not shown) [Example A513]", "> 8.00"]
]}
